Property: target mRNA inhibition; scope: individual sequences
Target: APOL1
Settings: ASO, A431, 0.0625 µM
After the bases stand the sugars from the 5' end (letter, count) and the backbone: PS all phosphorothioate, else s phosphorothioate and o phosphodiester by linkage. Methylation of C is not given here. e = 2'-O-(2-methoxyethyl) (MOE); k = constrained ethyl (cEt); d = 2'-deoxy (DNA)
Please reply with the bare figure in % and do not write the unit itself.

Previously resolved entries follow.
{"RESIDUE SEQUENCE": "GCTAATTTTCTGACTG (sugars kkddddkekekddddd, PS)", "ASSAYED TARGET": "APOL1", "OUTPUT UNIT": "%", "REPORTED VALUE": 63}
{"RESIDUE SEQUENCE": "TTTCATATTCACCCGA (sugars k4 d9 k3, PS)", "ASSAYED TARGET": "APOL1", "OUTPUT UNIT": "%", "REPORTED VALUE": 46}
{"RESIDUE SEQUENCE": "GCAAGGTTGTCCAGAG (sugars k4 d9 k3, PS)", "ASSAYED TARGET": "APOL1", "OUTPUT UNIT": "%", "REPORTED VALUE": 43}
{"RESIDUE SEQUENCE": "CTGTTCTAACTCTTGG (sugars k4 d9 k3, PS)", "ASSAYED TARGET": "APOL1", "OUTPUT UNIT": "%", "REPORTED VALUE": 61}
{"RESIDUE SEQUENCE": "CTTTATACCAGTGTCT (sugars kekddddeekkddddd, PS)", "ASSAYED TARGET": "APOL1", "OUTPUT UNIT": "%", "REPORTED VALUE": 41}
{"RESIDUE SEQUENCE": "GTGTTATATTTGATCC (sugars k3 d4 k3 e1 d5, PS)", "ASSAYED TARGET": "APOL1", "OUTPUT UNIT": "%", "REPORTED VALUE": 63}

INPUT: What target mRNA inhibition value was documented for this sequence, TTTGTAAGTGCAACCA (sugars kkddddekekeddddd, PS) ?
OUTPUT: 59

INPUT: // same read-out, input: CGTCAATATATTCTTT (sugars kkkddddkdkdkdddd, PS)
OUTPUT: 61

INPUT: // same read-out, input: TCCGTCAATATATTCT (sugars k2 d4 e3 k2 d5, PS)
OUTPUT: 59

INPUT: // same read-out, input: GTTTCATATTCACCCG (sugars k4 d9 k3, PS)
OUTPUT: 82
